Consider the following compounds; for each one, report its IC50.
molecular target: human IKK-2 (rhIKK-2 homodimer) (Homo sapiens, UniProt O14920); construct: FLAG (DYKDDDDKD) (C); made in house; host or cells: insect cells (baculovirus, pFastBac); experiment: IKK-2 Resin Enzyme Assay (Human IKK-2 Enzyme Assay); assay type: biochemical; settings: human IKK-2, resin enzyme assay; read-out: IC50 (μM) hIKK-2
Sequence (O14920 whole entry): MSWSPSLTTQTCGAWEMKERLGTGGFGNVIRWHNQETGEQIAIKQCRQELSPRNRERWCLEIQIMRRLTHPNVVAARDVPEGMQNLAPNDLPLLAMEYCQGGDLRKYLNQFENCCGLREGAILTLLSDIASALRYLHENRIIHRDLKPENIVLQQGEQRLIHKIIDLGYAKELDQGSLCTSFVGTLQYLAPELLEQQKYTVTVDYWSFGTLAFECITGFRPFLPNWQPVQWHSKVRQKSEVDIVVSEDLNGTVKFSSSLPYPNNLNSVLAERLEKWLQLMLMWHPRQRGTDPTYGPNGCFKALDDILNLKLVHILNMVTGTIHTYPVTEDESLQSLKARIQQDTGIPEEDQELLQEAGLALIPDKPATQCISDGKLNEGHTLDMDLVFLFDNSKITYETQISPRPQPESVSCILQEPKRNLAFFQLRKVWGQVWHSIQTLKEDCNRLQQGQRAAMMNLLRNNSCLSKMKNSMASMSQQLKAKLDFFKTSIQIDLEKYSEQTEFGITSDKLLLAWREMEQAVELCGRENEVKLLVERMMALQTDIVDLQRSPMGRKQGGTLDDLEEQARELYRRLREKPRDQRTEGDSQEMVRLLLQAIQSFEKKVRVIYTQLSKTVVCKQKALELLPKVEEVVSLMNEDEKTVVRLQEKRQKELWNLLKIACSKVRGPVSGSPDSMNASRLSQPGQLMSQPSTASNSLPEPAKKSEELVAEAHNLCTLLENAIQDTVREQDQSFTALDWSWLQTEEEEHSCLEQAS
Write the value in µM as a bare number.

Task: Provide IC50, system human IKK-2 (rhIKK-2 homodimer) (Homo sapiens, UniProt O14920), entry NC(=O)Nc1cn(-c2cccc(-c3ccc(F)cc3O)c2)nc1C(N)=O [Example 92]
Output: 6.61

Task: Provide IC50, system human IKK-2 (rhIKK-2 homodimer) (Homo sapiens, UniProt O14920), entry CNC(=O)Nc1cn(-c2ccc(Br)cc2)nc1C(N)=O [Example 16]
Output: 3.1

Task: Provide IC50, system human IKK-2 (rhIKK-2 homodimer) (Homo sapiens, UniProt O14920), entry NC(=O)Nc1cn(-c2ccc(-c3cccc(OCc4ccccn4)c3)cc2)nc1C(N)=O [Example 168]
Output: 1.99

Task: Provide IC50, system human IKK-2 (rhIKK-2 homodimer) (Homo sapiens, UniProt O14920), entry NC(=O)Nc1cn(-c2ccc(Sc3ccc(O)cc3)cc2)nc1C(N)=O [Example 199]
Output: 6.56

Task: Provide IC50, system human IKK-2 (rhIKK-2 homodimer) (Homo sapiens, UniProt O14920), entry NCc1cccc(-c2cccc(-n3cc(NC(N)=O)c(C(N)=O)n3)c2)c1 [Example 78]
Output: 0.81

Task: Provide IC50, system human IKK-2 (rhIKK-2 homodimer) (Homo sapiens, UniProt O14920), entry Cc1cc(-c2cccc(O)c2)ccc1-n1cc(NC(N)=O)c(C(N)=O)n1 [Example 5]
Output: 5.09

Task: Provide IC50, system human IKK-2 (rhIKK-2 homodimer) (Homo sapiens, UniProt O14920), entry NC(=O)Nc1cn(-c2ccc(Sc3cccc(F)c3)cc2)nc1C(N)=O [Example 197]
Output: 0.561

Task: Provide IC50, system human IKK-2 (rhIKK-2 homodimer) (Homo sapiens, UniProt O14920), entry Cc1cc(-n2cc(NC(N)=O)c(C(N)=O)n2)ccc1-c1cc(F)ccc1O [Example 242]
Output: 1.35
